System: NCI-H226 lung
protocol: NCI tumour cell line growth inhibition, 48 h; in the data active means GI50 below about 0.43 µM; inactive means the rest
Outcome field: choose from T = active, F = inactive

compound	answer-label
CN(C)CCNC(=O)NC[C@H]1CC[C@@H]2[C@H](O1)c1cc(C(F)(F)F)ccc1N[C@H]2c1ccccc1	F
N#CC1C(=O)NC(c2ccccc2[N+](=O)[O-])c2sc3c(F)cccc3c21 (stereo unspecified)	T
COc1ccc2c(c1)C(=O)c1c-2c(Nc2cccc(C(C)=O)c2)nc2ccccc12	F
COc1cc2c(cc1C)NC(=O)/C2=C\c1c[nH]c2ccccc12	F

In: GET /call?item= C#Cc1cccc(NC(=O)c2ccc(NC(=O)CCl)cc2)c1 returns the recorded outcome of this test.
Out: F

In: GET /call?item= COc1ccc(N(C)c2nc(Cl)nc3cnn(C)c23)cc1 returns the recorded outcome of this test.
Out: T

---

Tested on: DU-145 prostate
protocol: NCI tumour cell line growth inhibition, 48 h
Provide the reported TGI of each item.

// known answers, use as guide
compound	TGI
CN(CCCn1ccnc1[N+](=O)[O-])CCCn1ccnc1[N+](=O)[O-]	> 100 µM
CC[C@H](C)[C@H](NC(=O)[C@@]1(O)[C@H](O)[C@]2(CC)C=CCN3CC[C@@]4(c5cc(Br)c(OC)cc5N(C)[C@@H]14)[C@@H]32)C(=O)OC	> 100 µM
COC1CC(O[C@H]2CC[C@@]3(C)[C@@H](CC[C@]4(O)[C@@H]3CC[C@]3(C)[C@@H](C(C)=O)[C@H](OC(=O)CC(C)C)[C@@H](OC(=O)c5ccccc5)[C@@]34O)C2)OC(C)C1OC1CC(OC)C(OC2OC(C)C(O)C(OC)C2O)C(C)O1 (some centres not stated)	> 25 µM
COc1ccc(/C(=N\Nc2ccccn2)c2ccccn2)cc1	> 100 µM
Nc1nc(=S)n(-c2ccc(Cl)cc2)c2nc3ccccc3cc12	> 100 µM

Would you mind giving TGI for every compound in the list below?
1. COc1ccc2c(c1)C(=O)c1c-2c(Nc2cccc(C(C)=O)c2)nc2ccccc12
2. c1ccc([P+](CCCCCC[P+](c2ccccc2)(c2ccccc2)c2ccccc2)(c2ccccc2)c2ccccc2)cc1

Out:
1. 32.2 µM
2. > 100 µM

---

System: UACC-62 melanoma
protocol: NCI tumour cell line growth inhibition, 48 h
readout-kind: TGI

// known answers, use as guide
molecule	TGI
c1ccc([P+](CCCCCC[P+](c2ccccc2)(c2ccccc2)c2ccccc2)(c2ccccc2)c2ccccc2)cc1	> 100 µM
CCOC(=O)C(=O)NC12CC3CC(CC(C3)C1)C2	> 100 µM
O=c1c(Cl)cc2nc3ccccc3sc-2c1Cl	24.4 µM
COCc1c(-c2ccc(NC(=O)Nc3cc(C(F)(F)F)ccc3F)c(F)c2)c2c(N)ncnn2c1CN1CCOCC1	> 10 µM
CCN=C(C#N)NCC	> 100 µM
CC1(C)C2CCC(O)(C2)C1N (centres undefined)	> 100 µM

Would you mind giving TGI for every molecule in the list below?
1. CCCCc1c2c(c(C)c3c1C(=O)OC3)Oc1ccccc1O2
2. COc1ccc(/C(=N\Nc2ccccn2)c2ccccn2)cc1

Out:
1. > 100 µM
2. 6.44 µM

For this molecule ( C[Si](C)(C)C(Sc1ccccc1)(Sc1ccccc1)Sc1ccccc1 ), measured TGI is > 100 µM

---

Tested on: LOX IMVI melanoma
protocol: NCI tumour cell line growth inhibition, 48 h
readout-kind: TGI

// known answers, use as guide
compound	tested-on	endpoint-result
CCN(CC)CCn1c2ccccc2c(=O)c2c(OC)ccc(OC)c21	LOX IMVI melanoma	> 100 µM
O=C(O)CCC(C(=O)O)N1C(=O)C2C3CCC(C3)C2C1=O (stereo unspecified)	LOX IMVI melanoma	> 100 µM
C/C(=N/Nc1nc(C)cc(=O)[nH]1)C(=O)O	LOX IMVI melanoma	> 100 µM
O=[N+]([O-])c1cc2c([N+](=O)[O-])cccc2o1	LOX IMVI melanoma	> 100 µM

Would you mind giving TGI for every compound in the list below?
1. COc1cc2c[n+](C)c3c(c2cc1OC)Cc1cc2c(cc1-3)OCO2
2. CCCCCC[C@H](C)NC(=O)c1ccc(Nc2nc3ccccc3c3occc23)cc1
3. COC1=CC(=O)c2nc(Cl)ccc2C1=O
4. C1C[OH+]CC[OH+]CCNCC[OH+]CC[OH+]CCN1.Cl.[Cl-].[Pt+4]

Out:
["> 100 µM", "24.3 µM", "2.8 µM", "> 100 µM"]

Would you mind giving TGI for every compound in the list below?
1. O=c1oc2ccc3ccccc3c2cc1-c1nc2ccc([N+](=O)[O-])cc2o1
2. COc1cc(/C=C/C(=O)c2c(C)nc3ccccc3c2C)ccc1OCCCN1CCN(C(=O)c2ccco2)CC1
3. C=CCc1c(O)c(C(=O)/C=C/c2ccccc2)c(OC)c2ccoc12

Out:
1. > 91.3 µM
2. 21.5 µM
3. 2.93 µM

---

Provide the reported TGI of each item.
Tested on: HCT-15 colon
protocol: NCI tumour cell line growth inhibition, 48 h

// known answers, use as guide
compound	TGI
Cc1ccc2nc(NC(=O)/C(=N\NC(=S)NN)C3C(=O)NC(=S)NC3=O)sc2c1	> 100 µM
CN(C(=O)c1ccc(OCCCC(=O)O)c(Cl)c1Cl)C1CCCC1	> 100 µM
CCN(CC)CCn1c2ccccc2c(=O)c2c(OC)ccc(OC)c21	> 100 µM
C[CH2][Sn]([CH2]C)([O]C(=O)c1ccc(OC)c(OC)c1OC)[O]C(=O)c1ccc(OC)c(OC)c1OC	> 100 µM

We now examine a further compound.
For this compound ( CC1=C([Se]CC(OC(=O)[C@@H](CO)NC(=O)OC(C)(C)C)C(=O)NCCCCCC(=O)OCc2ccccc2)C(=O)c2ccccc2C1=O (stereo not given in full) ), measured TGI is 3.77 µM

---

Provide the reported TGI of each item.
Test system: MDA-MB-231 breast
protocol: NCI tumour cell line growth inhibition, 48 h
Answers are plain numbers, in µM.

Would you mind giving TGI for every compound in the list below?
1. CN(C)CCOC(=O)Nc1nc2ccc(Sc3ccccc3)cc2[nH]1
2. Cc1cc2nc(N3C(=O)/C(=C/c4ccc(N(C)C)cc4)N=C3c3ccccc3)sc2cc1C

Out:
1. 12.3
2. 96

---

System: UACC-62 melanoma
protocol: NCI tumour cell line growth inhibition, 48 h
readout-kind: TGI (µM)
Numbers only, in µM.

// known answers, use as guide
molecule	tested-on	TGI, µM
COc1cc(/C=C/C(=O)c2c(C)nc3ccccc3c2C)ccc1OCCCN1CCN(C(=O)c2ccco2)CC1	UACC-62 melanoma	21.7
CC[C@H](C)[C@H](NC(=O)[C@@]1(O)[C@H](O)[C@]2(CC)C=CCN3CC[C@@]4(c5cc(Br)c(OC)cc5N(C)[C@@H]14)[C@@H]32)C(=O)OC	UACC-62 melanoma	28.9
Cc1ccc(S(=O)(=O)Nc2ccc(-c3cc(-c4cccc(F)c4)c(C#N)c(N)n3)cc2)cc1	UACC-62 melanoma	3.44
O=C(C/C=C/c1ccccc1)c1ccccc1	UACC-62 melanoma	26.4
C/C(=N/N=C(N)N)c1ccc(NC(=O)Nc2ccc(/C(C)=N/N=C(N)N)cc2)cc1	UACC-62 melanoma	45.3

Would you mind giving TGI for every molecule in the list below?
1. COc1ccc(C(=O)/C=C/c2ccc(OCC(=N)N)cc2)cc1
2. CSc1ccc(C(=O)/C=C/c2ccccc2Cl)cc1
3. Fc1ccc(Nc2nc3ccccc3c3occc23)cc1
4. CCN1CCC(O)(c2ccc(O)cc2)C(C(=O)c2ccc(O)cc2)C1 (stereo unspecified)
5. N/C(=N\S(=O)(=O)c1cc(Cl)c(Oc2ccc([N+](=O)[O-])cc2Cl)c(Cl)c1)Nc1ccc(Cl)cc1

Out:
29
33.5
24.8
30.9
25.6

---

System: UO-31 renal
protocol: NCI tumour cell line growth inhibition, 48 h; in the data active = GI50 below about 0.43 µM; inactive = the rest
Outcome field: choose from active, inactive

In: GET /call?item= COc1cnc2c(c1)C(=O)c1c-2n(CCCN2CCNCC2)c(=O)c2cc([N+](=O)[O-])ccc12 returns the recorded outcome of this test.
Out: active

In: GET /call?item= COc1ccc2c(c1)C(=O)c1c-2c(Nc2cccc(C(C)=O)c2)nc2ccccc12 returns the recorded outcome of this test.
Out: inactive

In: GET /call?item= CCn1ccc(NS(=O)(=O)c2ccc(N)cc2)nc1=O returns the recorded outcome of this test.
Out: inactive

In: GET /call?item= COc1ccc(/C=C2\c3cc(OC)c(OC)c(OC)c3CC[C@@H]2O)cc1F returns the recorded outcome of this test.
Out: inactive

In: GET /call?item= COCCn1cc(-c2csc(-c3c[nH]c4ccc(Br)cc34)n2)c2cccnc21 returns the recorded outcome of this test.
Out: inactive

In: GET /call?item= C1C[OH+]CC[OH+]CCNCC[OH+]CC[OH+]CCN1.Cl.[Cl-].[Pt+4] returns the recorded outcome of this test.
Out: inactive

In: GET /call?item= C=C1C(=O)O[C@H]2[C@H]1CC/C(COC(=O)NCCCCCCCCNC(=O)OC/C1=C/CC[C@@]3(C)O[C@H]3[C@H]3OC(=O)C(=C)[C@@H]3CC1)=C\CC[C@@]1(C)O[C@@H]21 returns the recorded outcome of this test.
Out: inactive

In: GET /call?item= FC(F)(F)c1cc(Nc2ccc3cc(OCCCN4CCOCC4)ccc3n2)ccc1Cl returns the recorded outcome of this test.
Out: inactive

In: GET /call?item= COC(=O)[C@]12CC[C@@H](C)[C@H](C)[C@@H]1C1=CC[C@@H]3[C@@]4(C)C(C=O)=C[C@@](C)(COC(=O)/C=C/c5ccccc5)[C@@H]4[C@H](O)C[C@@]3(C)[C@]1(C)CC2 returns the recorded outcome of this test.
Out: inactive

The origin of these recorded values is PubChem BioAssay (NCI).
